# Tested on: MS2 coat protein
# EXPERIMENTAL PROTOCOL: apparent KD of MS2 coat protein; designed switch direction (-1 OFF switch, 1 ON switch): -1; higher = weaker reporter binding
# COND: input ligand: FMN 200 uM
apparent KD of MS2 coat protein for assorted sequences

The following sequences have reported results that may help.
QUERY SEQUENCE: UAUUUGCAAGCGAGAUCCCACAUGAGGAUCACCCAUGUGCUCGUCUUAUAAGGUACUGUGACGAGAGUCACGGUACC [Mat - Sensor, turn-off var - Eli Mod - D90] (Eterna round: R97, puzzle: Sensor, turn-off variant 1)
apparent KD of MS2 coat protein: 15 nM

QUERY SEQUENCE: GCUUGUAGAGGAUAUACGAGGGCCCGAGCGGAUAACACCGCACAUGAGGAUCACCCAUGUAGAAGGCUACUACC [JL-ex2-4.17 ViennaUCT mod] (Eterna round: R97, puzzle: Exclusion 2)
apparent KD of MS2 coat protein: 495 nM

QUERY SEQUENCE: GGACUGCGACACAGCCAAACAAAACAUGAGGAUCACCCAUGUCAGGAUAUACCGAUGCAGCAUCUGUAGAAGGGACAGAUCCAA [Qusorave] (Eterna round: R96, puzzle: Exclusion NG 3)
apparent KD of MS2 coat protein: 80.3 nM

In: Name the recorded apparent KD of MS2 coat protein for GAUUGAGAAGGAUAUACAUGAGGAUCACCCAUGUGCUUCAGCUAGGAGACUAGCAUUGGUAGAAGGUCUUAAUC [Mod of lroppy 15 - Jieux - Exclusion 3] (Eterna round: R97, puzzle: Exclusion 3) .
Out: 69.7 nM

* * *

# Test system: MS2 coat protein
# EXPERIMENTAL PROTOCOL: apparent KD of MS2 coat protein; designed switch direction (-1 OFF switch, 1 ON switch): 1; higher = weaker reporter binding
# COND: input ligand: microRNA oligo, concentration not stated
Each item that follows carries a reported apparent KD of MS2 coat protein.

QUERY SEQUENCE: GCUCGAAUCAGAACCAACAUGAGGAUCACCCAUGUGUGUUGGUAGGAUAUCGUUUCUAAGGGAAACGAGAAGGGCCGAACGAGC [SameState NG3 #7] (Eterna round: R96, puzzle: Same State NG 3)
ATTRIBUTE MEASURED: apparent KD of MS2 coat protein
REPORTED RESULT: 49.4 nM
--
QUERY SEQUENCE: ACAUGAGGAUCACCCAUGUAACACCUGAAAAUAAAACGAACACAGGAUAUCCCAGCAUGACGCCGGGAGAAGGGUGAUCGAAGA [Quorer] (Eterna round: R96, puzzle: Same State NG 3)
ATTRIBUTE MEASURED: apparent KD of MS2 coat protein
REPORTED RESULT: 118 nM
--
QUERY SEQUENCE: GCCGCGUUUCGCGCCUACAUGAGGAUCACCCAUGUUUGUAGGCAGGAUAUCGUUUGCUUUGCAACCGAGAAGGGCUGUUGUGGC [salish99_SSNG3_R04_013] (Eterna round: R96, puzzle: Same State NG 3)
ATTRIBUTE MEASURED: apparent KD of MS2 coat protein
REPORTED RESULT: 38.4 nM
--
QUERY SEQUENCE: GAUUAACAUGAGGAUCACCCAUGUCGUUUAAUGGGAGGAUAUACGUGGACCGUAGUCCGCGUAGAAGGCCUAAUUG [JL-ss1-3.22 janelle mod] (Eterna round: R96, puzzle: Same State 1)
ATTRIBUTE MEASURED: apparent KD of MS2 coat protein
REPORTED RESULT: 48.3 nM
--
QUERY SEQUENCE: AUUUUUAAUGCAGGAUAUGAUUAACAUGAGGAUCACCCAUGUGGUGUUGUGAGUAAGGAGAGUGAUCAGAAGGGCAUUUUUUUC [JMF's solution 91] (Eterna round: R96, puzzle: Same State NG 2)
ATTRIBUTE MEASURED: apparent KD of MS2 coat protein
REPORTED RESULT: 274 nM
--
QUERY SEQUENCE: UUCCUUCUCGUAGGAUAUGUAGGAUAUUCCUACAUGAGGAUCACCCAUGUUCGCAUGGAAGAAGGACAGAAGGACGAUCACCCU [pwkr ssNG2 2FMN + 1F5.11] (Eterna round: R96, puzzle: Same State NG 2)
ATTRIBUTE MEASURED: apparent KD of MS2 coat protein
REPORTED RESULT: 74.3 nM

In: Requested field: apparent KD of MS2 coat protein. Item: GAGUGGCAGUAAGGAUAUAUAGUGAUAAUCACAGUAGAAGGUACUGACAUGAGGAUCACCCAUGUAGGACUAAUCCAGAGAGAG [Parity 42 - Jieux - Same State NG 1] (Eterna round: R96, puzzle: Same State NG 1)
Out: 26.4 nM

In: Endpoint output: apparent KD of MS2 coat protein of AACAGACAUGAGGAUCACCCAUGUAGAAUUAUGGGAGGAUAUACAAAGACGAGAGUCAGAGUAGAAGGCCUAGGAC [salish99-ss1-163] (Eterna round: R96, puzzle: Same State 1) . Value?
Out: 42.2 nM

In: I'd like to know its apparent KD of MS2 coat protein. The sequence in question is UGGCUCAGACGAGGAUAUAUGUAAUAACAUGAGGAUCACCCAUGUGUCGAGCUUCGGCUCGACACAUAGAAGGCGUCUGAGCCU [SSNG2/2-A3] (Eterna round: R96, puzzle: Same State NG 2)
Out: 20.2 nM

In: // lookup apparent KD of MS2 coat protein for GCGAGCGUACUUGCUACAUGAGGAUCACCCAUGUUCGUUGGACAGGAUAUGGUACCGUUUCGGUACCAGAAGGGUUCACAUGUG [JL SSNG3 3.78] (Eterna round: R96, puzzle: Same State NG 3)
Out: 158 nM

In: Need apparent KD of MS2 coat protein, item GUGGUCAGACAUGAGGAUCACCCAUGUGGAAUAAAUAAGGACUAGGAUAUCGAAUAUAGGAUAUACGAGAAGGAGUGGUUGGUG (Eterna round: R96, puzzle: Same State NG 3)
Out: 53.5 nM

In: Given the sequence UGGCUCAGAGCAGGAUAUAUGUGAUCACAUGAGGAUCACCCAUGUCUCGAGCUUCGGCUCGAGACAUAGAAGGGCUCUGAGCCU [SSNG2/3-B3] (Eterna round: R96, puzzle: Same State NG 2) , what is its reported apparent KD of MS2 coat protein?
Out: 52.7 nM

In: // lookup apparent KD of MS2 coat protein for AUAAUACAUGAGGAUCACCCAUGUAAUUUAACUUGUAAGAUCAAGGAUAUCAGCUCGUUUAGAGCUGAGAAGGUGAUCACAUGU [SSNG3/20-A3] (Eterna round: R96, puzzle: Same State NG 3)
Out: 60.2 nM

In: Which apparent KD of MS2 coat protein reading was recorded for the sequence CACAUGAGGAUCACCCAUGUCAGACAAAGGAGCAUGACGCUACAGGAUAUGUGAGCGACUAACGAAUAGAAGGGUAGCCAUCAC [Eternabot solution 27] (Eterna round: R96, puzzle: Same State NG 3) ?
Out: 20.8 nM

In: Given the sequence AUAACACCGGCAGGAUAUGGGAAAGGAAGUGUACCAGAAGGGCCGGAACGGCGAUGGACAUGAGGAUCACCCAUGUCUUAGCCU [PowerStrip SSNG 1.24] (Eterna round: R96, puzzle: Same State NG 1) , what is its reported apparent KD of MS2 coat protein?
Out: 11.6 nM

In: Given GCGAGCGUACUUGCAACAUGAGGAUCACCCAUGUUAACUGGACAGGAUAUGGUACCGUUUCGGUACCAGAAGGGUUUUUCAUGG [JL SSNG3 3.64] (Eterna round: R96, puzzle: Same State NG 3) , state its recorded apparent KD of MS2 coat protein.
Out: 50.6 nM

In: What does the record list as apparent KD of MS2 coat protein for UAAUGUUAGCGAGGAUAUCGUUUAUUGAAGUUACGAGAAGGCGCUCUUCUUACAUGAGGAUCACCCAUGUCUGUUUUGCAUGAU [JR_SSNG1_Sub068] (Eterna round: R96, puzzle: Same State NG 1) ?
Out: 50 nM

In: What apparent KD of MS2 coat protein value was documented for this sequence, CGAGCCGGCACUGAGGAUAUUCAUAUUUAAACAUGAGGAUCACCCAUGUAGGCCAGAAGGCCUUGGGAGAAGGCAGGUCGGCUCC [salish99_ss2_r3_080] (Eterna round: R96, puzzle: Same State 2) ?
Out: 220 nM
